# System: bloodstream trypomastigote forms of Trypanosoma cruzi (Y strain, DTU II)
# PROTOCOL DESCRIPTION: In vitro activity against bloodstream trypomastigotes (Y strain)
# Type: cell-based
# EXPERIMENTAL SETUP: Trypanosoma cruzi, 24 h, 95% confidence interval in brackets
Kindly supply the reported EC90 values for the records listed here.
Answer format reminder: number followed by unit.

The observed EC90 for `Cc1ccc(CC(=O)c2ccc(OCCCCn3ccnc3)c(Br)c2)cc1Nc1nccc(-c2cccnc2)n1` when tested with bloodstream trypomastigote forms of Trypanosoma cruzi (Y strain, DTU II) stands at 4.9 µM

Observed EC90 on bloodstream trypomastigote forms of Trypanosoma cruzi (Y strain, DTU II), entry `Cc1ccc(CC(=O)c2ccccc2OCCCCn2ccnc2)cc1Nc1nccc(-c2cccnc2)n1` , equals 22 µM

Result for `COc1ccc(C(=O)Cc2ccc(C)c(Nc3nccc(-c4cccnc4)n3)c2)cc1OCCCCn1ccnc1` , tested on bloodstream trypomastigote forms of Trypanosoma cruzi (Y strain, DTU II), EC90: 7.09 µM

---

# Tested on: bloodstream trypomastigote forms of Trypanosoma cruzi (Y strain, DTU II)
# PROTOCOL DESCRIPTION: In vitro activity against bloodstream trypomastigotes (Y strain)
# Format: cell-based
# EXPERIMENTAL SETUP: Trypanosoma cruzi, 24 h, 95% confidence interval in brackets
Kindly state EC90 for each of the entries shown.

Notebook: `Cc1ccc(CC(=O)c2ccc(Br)cc2OCCCCn2ccnc2)cc1Nc1nccc(-c2cccnc2)n1` , EC90 read as 5.69 µM

Recorded result, `Cc1ccc(CC(=O)c2cccc(OCCCCn3ccnc3)c2)cc1Nc1nccc(-c2cccnc2)n1` , EC90: 8.52 µM

The molecule `COc1cc(C(=O)Cc2ccc(C)c(Nc3nccc(-c4cccnc4)n3)c2)ccc1OCCCCn1ccnc1` showed EC90 equal to 5.34 µM

So for `Cc1ccc(CC(=O)c2ccc([N+](=O)[O-])c(OCCCCn3ccnc3)c2)cc1Nc1nccc(-c2cccnc2)n1` , the logged EC90 turned out to be 4.8 µM
